Could you please report measured cytotoxicity at 10 µM for the items listed next?
# assayProcedure: Toxicity liver stage against HepG2, at 10uM
# Format: cell-based
# Set-up: test concentration 10 uM, cell line HepG2-A16-CD81EGFP
# conditionLabel: human, HepG2-A16-CD81EGFP cells; read-out: INHIBITION
One number for each entry, in %.

Example compounds with recorded cytotoxicity at 10 µM:
INSERT INTO results (compound, parameter, observedvalue) VALUES
  ('CC(C)=CCN1C[C@@H]2CN(C(=O)c3cnccc3C)C[C@]2(C(=O)O)C1', 'cytotoxicity at 10 µM', 2.85),
  ('CCn1c(C2CCCNC2)nn(CCn2cncn2)c1=O (stereo not drawn)', 'cytotoxicity at 10 µM', -18.1),
  ('O=C1CC2(CCCNC2)C(=O)N1Cc1ccc(F)cc1 (stereo not drawn)', 'cytotoxicity at 10 µM', 1.65),
  ('c1ccc(-n2nnnc2CNCc2ccc3c(c2)OCCO3)cc1', 'cytotoxicity at 10 µM', 9.35),
  ('CCc1ccc(S(=O)(=O)Nc2ccncc2)s1', 'cytotoxicity at 10 µM', 0.453),
  ('COc1cc(CNC(=O)c2c(C)noc2C)ccn1', 'cytotoxicity at 10 µM', -8.83),
  ('CCOCc1nc(N2CCCC2)sc1C(=O)NCCC(=O)OCC', 'cytotoxicity at 10 µM', -3.66),
  ('COc1cc(NCC(=O)NC(C)(C#N)C(C)C)cc(OC)c1OC (stereo not drawn)', 'cytotoxicity at 10 µM', -7.33),
  ('CC(Cn1cccn1)C(=O)N1CCCN(Cc2cscn2)CC1 (stereo not drawn)', 'cytotoxicity at 10 µM', -13.2),
  ('CC(=O)N(C)C1CCCc2nc(C)sc21 (stereo not drawn)', 'cytotoxicity at 10 µM', -4.97);

List reported cytotoxicity at 10 µM for each of these compounds:
1. CCCN(Cc1cnn(C)c1)S(=O)(=O)c1cccc(F)c1C#N
2. Cn1ncc2c(NCCCOc3cccnc3)nc(C3CCCC3)nc21

1. -9.04
2. 2.94

====

# assayProcedure: Toxicity liver stage against HepG2, at 10uM
# Assay type: cell-based
# Parameters: test concentration 10 uM, cell line HepG2-A16-CD81EGFP
# conditionLabel: human, HepG2-A16-CD81EGFP cells; read-out: INHIBITION
Kindly state cytotoxicity at 10 µM for each of the entries shown.
Answers are plain numbers, in %.

INSERT INTO assay_data (compound, units, observedvalue) VALUES
  ('Cc1cc(NCc2cccc(C#N)c2)ccc1C(=O)N(C)C', '%', 7.06),
  ('COC(=O)C(C)NCc1ccc2[nH]c(C)c(C)c2c1 (centres undefined)', '%', 2.4),
  ('Cc1ccc(N2CCC3(CCN(C(N)=O)CC3)CC2)nn1', '%', 1.62),
  ('Cc1ccc(O)c(-c2cc(NCCO)nc3[nH]ccc23)c1', '%', 14.1),
  ('O=C(Cc1cccs1)NCC(=O)Nc1cn[nH]c1', '%', 5.68),
  ('COc1c(C2CCCN2Cc2csc(C(C)C)n2)c(C)nn1C (centres undefined)', '%', -1.53),
  ('CC(C)CNC(=O)c1cc2c(s1)CCN2S(C)(=O)=O', '%', -0.522),
  ('Clc1cccc(-n2cnnn2)c1N1CCCCC1', '%', 17.4),
  ('CN1CCc2c(c(COc3cncnc3)nn2CC2CC2)C1', '%', 8.61),
  ('CN(CCCNC(=O)c1cccc(OCC(N)=O)c1)CC(F)(F)F', '%', -10.4);

Hi there! I need cytotoxicity at 10 µM for each item below, if you can.
1. Cc1nn(C)c(C)c1C1CCCN1C(=O)Cc1cn2ccsc2n1 (centres undefined)
2. COCCN1C(=O)CO[C@H]2CN(Cc3cccc(OC)c3F)C[C@@H]21
3. c1cnnc(N2CCCC(NCc3ccc(-n4cccn4)cc3)C2)c1 (centres undefined)
4. c1cnnc(N2CCCC2CNCc2cc[nH]n2)c1 (centres undefined)
5. CNC(=O)C1CCCN(C(=O)OC)C1 (centres undefined)
6. CN1CC(=O)N(c2ccccc2)CC12CCN(C(=O)CC1CC1)C2 (centres undefined)
7. Cn1cc(CN2CCOC(Cc3cccc(F)c3)C2)cn1 (centres undefined)
8. O=C(Nc1nccs1)C1CCN(Cc2cccc3c2OCCO3)CC1

1: -45.2; 2: -0.0572; 3: 0.241; 4: -0.807; 5: -6.06; 6: 0.972; 7: -2.62; 8: -1.95

Where do these numbers come from? They come from ChEMBL document CHEMBL4513216.
